meta.source: PubChem BioAssay (NCATS)

System: CAOV3
Experiment: Primary qHTS to identify gynecologic anti-cancer compounds using libraries of approved drugs and bioactive compounds (AID 1345084); further: nearly all actives have a fitted effect of over 55% in size
Details: Gynecologic cancer cell panel viability, ATPlite luminescence, 48 h; series mostly up to 57.5 µM
Inconclusive results are not listed. Active and inactive are the calls of the source. The call rests on the fitted dose curve; in most records, active means well fitted cell-killing curve with a large enough effect; inconclusive means small, poorly fitted or top-dose-only effect, or effect the other way; inactive means flat fitted curve, though single readings scatter.
Readout Kind: outcome

Use these answered entries as a reference point.
>  <Smiles Input>
CNC(C)(C)Cc1ccccc1

>  <Measured>
inactive

$$$$
>  <Smiles Input>
C[C@]12CCC(=O)C=C1CC[C@@H]1[C@@H]2CC[C@@]2(C)[C@H]1CC[C@]2(C)O

>  <Measured>
inactive

$$$$
>  <Smiles Input>
C[C@]12Cc3cn[nH]c3C[C@@H]1CC[C@@H]1[C@@H]2CC[C@@]2(C)[C@H]1CC[C@]2(C)O

>  <Measured>
inactive

$$$$
>  <Smiles Input>
CCc1cc2c(s1)-n1c(C)nnc1CN=C2c1ccccc1Cl

>  <Measured>
inactive

$$$$

Now consider the entry below.
Lookup: Return reported outcome. Input molecule: Cc1ncsc1CCCl
Found: inactive
